Catalogue of Trep Concentration 30 min readings, one per entry.
# ASSAY_TEXT: Stability in human subcutaneous skin homogenate
# Experimental: The pool of skin homogenate was prepared by combining equal volumes of three lots that were tested in the initial skin homogenate lot assessment experiments. A stock solution of calcein-AM was first prepared at 5 mM in DMSO, followed by a serial dilution into methanol at a concentration of 100 μM. 495 μL of skin homogenate was thawed and warmed to 37° C. […] All samples and standards were read concurrently (Table 13). […]
Numbers only here, please. The scale is µM.

Would you please look over these solved cases?
CCCCCC(CCC1C(O)CC2Cc3c(cccc3OCC(=O)O)CC21)OC(=O)C(C)(C)C (centres unmarked) [XLIX] ... 0.0159
CCCCCC(CCC1C(O)CC2Cc3c(cccc3OCC(=O)O)CC21)OC(=O)CN (centres unmarked) [XXX] ... 0.206

Lookup: Record request: Trep Concentration 30 min value, item CCCCCC(CCC1C(O)CC2Cc3c(cccc3OCC(=O)O)CC21)OC(=O)OC(C)C (centres unmarked) [XVII]
Found: 0.064

Lookup: Request: CCCCCC(CCC1C(O)CC2Cc3c(cccc3OCC(=O)O)CC21)OC (centres unmarked) [XLV]
Found: 0

Lookup: Request: CCCCCC(CCC1C(O)CC2Cc3c(cccc3OCC(=O)O)CC21)OC(=O)C1CCCN1 (centres unmarked) [XXXVI]
Found: 0.328
